Recorded TGI by entry
Test system: UACC-257 melanoma
measurement-protocol: NCI tumour cell line growth inhibition, 48 h
assay-endpoint: TGI (µM)

- C=C(C)[C@@H]1CC[C@]2(C)[C@H](C(=O)C=C3[C@@H]4C[C@](C)(C(=O)N5CCN(C)CC5)CC[C@]4(C)CC[C@]32C)[C@@]1(C)CCC#N: 13.9
- O=[N+]([O-])c1cccc2nc3ccccc3c(NCCc3cccc[n+]3[O-])c12: 0.0647

* * *

Recorded GI50 by entry
Tested on: 786-0 renal
measurement-protocol: NCI tumour cell line growth inhibition, 48 h
assay-endpoint: GI50

• NC(CSC(c1ccccc1)(c1ccccc1)c1ccc(Cl)cc1)C(=O)O (stereo unspecified) = 1360 nM
• CCCCCCCC/C=C/CCCCCCCCC1=NCCN1CCO = 5490 nM
• COc1ccc(C(=O)c2ccc(OC)c(OC)c2OC)cc1 = 9850 nM
• COc1cc(NCCCCN=C(N)NC(N)=NC(C)C)c2ncccc2c1 = 31000 nM
• O=C(OCc1ccccc1)N1CCN(/[N+]([O-])=N/Oc2ccc([N+](=O)[O-])cc2[N+](=O)[O-])CC1 = 2450 nM
• CCN(CC)c1cc(/C=C/c2ccc(OC)c(OC)c2)nc2cc(F)c(F)cc12 = 1980 nM
• CCCCCCCCCCCCCCCCCC1=NCCN1CS(=O)(=O)O = 17700 nM
• N#Cc1c(-c2ccc(Cl)cc2)n(O)c2ccccc12 = 2240 nM
• COc1cccc(C2C(C#N)=C(N)Oc3cc(N)ccc32)c1 (stereo unspecified) = 632 nM
• CC(=O)Nc1ccc(Sc2ccc([N+](=O)[O-])o2)cc1 = 2690 nM
• CC(C)CCOc1ccc(-c2n[nH]c(C(F)(F)F)c2-c2cncc(C#N)c2)c(O)c1 = 2960 nM
• COc1cc(C(=O)/C=C/c2cc(C(=O)c3cc(OC)c(OC)c(OC)c3)ccc2OC)ccc1N = 1540 nM
• CC(=O)c1ccc(NC(=O)CSc2nnc(-c3cc(-c4ccc(C)cc4)nc4ccccc34)o2)cc1 = 1610 nM
• NC(=NCCCOc1ccc(Cl)cc1)Nc1ccc(Cl)cc1 = 2150 nM
• COc1cc2c(cc1OCCOS(C)(=O)=O)N=C[C@@H]1CCCN1C2=O = 17000 nM
• COc1cc(/C=C/c2cc(/C=C/c3ccc(O)c(OC)c3)n(-c3c(C)cccc3C)c(=O)n2)ccc1O = 958 nM

* * *

Recorded log10(TGI) by entry
Tested on: M14 melanoma
measurement-protocol: NCI tumour cell line growth inhibition, 48 h
assay-endpoint: log10(TGI) (log10 of the value in µM)

* CC1OC(OC2C(O[C@H]3CC[C@@]4(C)[C@@H](CC[C@@H]5[C@@H]4CC[C@]4(C)[C@@H]6[C@H](C[C@@H]54)O[C@]4(CC[C@@H](C)CO4)[C@H]6C)C3)OC(CO)C(OC3OC(CO)C(O)C(OC4OCC(O)C(O)C4O)C3OC3OCC(O)C(O)C3O)C2O)C(O)C(O)C1O (stereo partly specified) | -0.02
* NC(N)=NS(=O)(=O)c1ccc(NCc2c3ccccc3nc3ccccc23)cc1 | 1.81
* COc1cc(NCCCCN=C(N)NC(N)=NC(C)C)c2ncccc2c1 | 1.58
* CS(=O)CCCCCN=C=S (stereo unspecified) | 1.16
* O=C/C(=C(/Br)I)c1ccccc1 | 0.60
* S=C(N/N=C(/c1ccccc1)c1ccccn1)Nc1ccccc1Cl | 0.46
* Cc1cc2cc3cc(C)c(N(C)C)cc3nc2cc1N(C)C | 1.26
* C=C(C)[C@@H]1CC[C@]2(C)[C@H](C(=O)C=C3[C@@H]4C[C@](C)(C(=O)N5CCN(C)CC5)CC[C@]4(C)CC[C@]32C)[C@@]1(C)CCC#N | 1.15
* N#Cc1c(-c2ccc([N+](=O)[O-])cc2)cc(-c2ccc(Nc3ccnc4cc(C(F)(F)F)ccc34)cc2)nc1N | 1.56

Value source: PubChem BioAssay (NCI)
